TARGET: CFTR ΔF508 (Homo sapiens, UniProt P13569, DEL508-508)
Construct: bronchial epithelial cells isolated from CF patients homozygous for the CFTR ΔF508 mutation; McGill University; Asterand; University of North Carolina hAEC-CF; host or cells: primary human bronchial epithelial cells from CF patients homozygous for ΔF508
Sequence (P13569 with tags, fused parts or gaps DEL508-508): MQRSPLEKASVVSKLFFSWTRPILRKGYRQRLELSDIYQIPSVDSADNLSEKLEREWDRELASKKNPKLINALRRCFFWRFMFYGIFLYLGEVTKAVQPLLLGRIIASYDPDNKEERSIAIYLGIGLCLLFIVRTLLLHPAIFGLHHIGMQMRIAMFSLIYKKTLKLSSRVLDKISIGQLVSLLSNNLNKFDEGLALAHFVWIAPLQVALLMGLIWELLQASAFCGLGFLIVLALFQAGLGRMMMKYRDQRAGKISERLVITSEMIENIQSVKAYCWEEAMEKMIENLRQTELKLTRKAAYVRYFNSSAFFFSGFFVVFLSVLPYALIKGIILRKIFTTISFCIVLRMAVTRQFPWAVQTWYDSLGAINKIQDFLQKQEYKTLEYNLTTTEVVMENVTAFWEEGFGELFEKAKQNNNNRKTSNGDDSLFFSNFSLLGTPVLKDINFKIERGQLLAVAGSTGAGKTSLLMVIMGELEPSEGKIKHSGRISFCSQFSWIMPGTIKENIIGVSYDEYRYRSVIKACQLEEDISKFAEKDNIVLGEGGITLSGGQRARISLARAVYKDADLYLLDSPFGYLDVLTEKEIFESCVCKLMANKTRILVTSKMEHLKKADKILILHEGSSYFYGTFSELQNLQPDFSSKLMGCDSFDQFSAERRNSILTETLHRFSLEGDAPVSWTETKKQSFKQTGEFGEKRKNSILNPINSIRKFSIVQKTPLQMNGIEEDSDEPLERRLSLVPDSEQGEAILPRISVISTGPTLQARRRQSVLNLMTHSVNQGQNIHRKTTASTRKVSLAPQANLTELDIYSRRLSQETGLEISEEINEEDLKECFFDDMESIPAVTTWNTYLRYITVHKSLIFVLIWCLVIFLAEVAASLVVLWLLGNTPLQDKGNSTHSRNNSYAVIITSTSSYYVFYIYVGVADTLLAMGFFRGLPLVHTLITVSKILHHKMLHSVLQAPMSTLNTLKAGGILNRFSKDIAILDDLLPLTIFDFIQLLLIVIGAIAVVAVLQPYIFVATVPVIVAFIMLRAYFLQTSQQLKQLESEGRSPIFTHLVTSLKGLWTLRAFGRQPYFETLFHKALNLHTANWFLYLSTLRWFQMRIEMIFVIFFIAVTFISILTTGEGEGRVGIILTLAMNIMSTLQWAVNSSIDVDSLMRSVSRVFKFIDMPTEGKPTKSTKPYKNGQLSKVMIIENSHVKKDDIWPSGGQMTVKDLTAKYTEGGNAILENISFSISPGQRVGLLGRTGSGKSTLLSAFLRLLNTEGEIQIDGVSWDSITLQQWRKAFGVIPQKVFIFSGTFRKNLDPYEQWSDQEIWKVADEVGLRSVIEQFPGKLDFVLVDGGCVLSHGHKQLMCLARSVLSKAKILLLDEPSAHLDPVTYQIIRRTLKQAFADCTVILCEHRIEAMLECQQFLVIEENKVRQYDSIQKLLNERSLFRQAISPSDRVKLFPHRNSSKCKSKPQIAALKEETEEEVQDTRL
TEST NAME: Chronic TECC assay on primary bronchial epithelial cells (corrector, co-corrector and potentiator)
Format: cell-based
APPLIED CONDITIONS: chronic TECC; Ieq = calculations based on the maximum current; with co-corrector and potentiator, 24 hours; read-out: EC50 (nM) (Ieq)
QUANTITY: EC50

These recorded examples may help you get a feel for the data.
structure_as_smiles=CO[C@H]1CCC[C@@H](n2nc(C(C)C)c3c(-c4ccc(N5CCOCC5)cc4)cc(C(=O)O)nc32)C1 value="> 1000 nM"
structure_as_smiles=CC(C)c1nn(-c2cccc(N3CCOCC3)c2)c2nc(C(=O)O)cc(-c3cnc(N4CCC(C#N)CC4)nc3)c12 value="< 30 nM"

State the recorded EC50 for this entry: Cc1cccc(-n2nc(C(C)C)c3c(N4CCC(CO)CC4)cc(C(=O)O)nc32)c1
> 300 nM

State the recorded EC50 for this entry: CC(C)c1nn(-c2cccc(N3CCOCC3)n2)c2nc(C(=O)O)cc(-c3ccc(N4CCOCC4)cc3)c12
< 30 nM

State the recorded EC50 for this entry: CC(C)c1nn(-c2cc(F)cc(F)c2)c2nc(C(=O)O)cc(-c3ccc(N4CCOCC4)cc3)c12
25 nM

State the recorded EC50 for this entry: COCCC1CCN(c2cc(C(=O)O)nc3c2c(C(C)C)nn3-c2cccc(C)c2)CC1
< 30 nM

State the recorded EC50 for this entry: COC1CCN(c2cc(C(=O)O)nc3c2c(C(C)C)nn3-c2cccc(C)c2)CC1
< 30 nM
